- Target under test: human recombinant Yes [a.a. 2–543 (end)] (Homo sapiens, UniProt P07947)
- Construct: human recombinant Yes [a.a; 2–543 (end)]; purchased BPS Bioscience 40488
- Sequence (P07947 2-543): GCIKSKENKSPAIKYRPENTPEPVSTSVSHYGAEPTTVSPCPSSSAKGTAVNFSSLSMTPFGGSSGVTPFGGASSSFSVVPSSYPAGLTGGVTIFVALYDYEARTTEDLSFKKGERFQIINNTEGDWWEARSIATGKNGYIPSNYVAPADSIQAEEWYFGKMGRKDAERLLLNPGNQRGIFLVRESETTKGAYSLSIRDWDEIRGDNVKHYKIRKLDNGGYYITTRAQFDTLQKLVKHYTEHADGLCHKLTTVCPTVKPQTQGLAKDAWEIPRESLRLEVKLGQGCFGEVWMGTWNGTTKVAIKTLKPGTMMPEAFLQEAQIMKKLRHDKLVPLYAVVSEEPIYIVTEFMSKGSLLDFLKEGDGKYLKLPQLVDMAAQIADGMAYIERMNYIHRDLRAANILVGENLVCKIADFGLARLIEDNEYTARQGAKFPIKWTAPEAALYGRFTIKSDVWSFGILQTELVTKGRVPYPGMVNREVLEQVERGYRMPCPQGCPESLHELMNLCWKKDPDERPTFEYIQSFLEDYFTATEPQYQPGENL
- Measurement protocol: ADP-Glo kinase assay, inhibition rates of Yes phosphorylation activity (first and second screening)
- Assay type: biochemical
- Settings: first screening; mean of n = 4 wells; 10 μmol L−1 compound
Property: First screening IR (inhibition rate)
State the value, then name its unit.

Look over these answered cases.
Cc1c(Nc2ccc(/C=C3/C(=O)Nc4ccc(Cl)cc43)cc2)c(=O)n(-c2ccccc2)n1C [Compound Z46051719] ... 15%
CC(C)c1ccc2cc(C(=O)NCCN3CCS(=O)(=O)CC3)[nH]c2c1 [Compound Z649805708] ... -31%
Cc1nn(C(C)(C)C)c2nc(C3CC3)cc(C(=O)NC(C)C)c12 [Compound Z441582602] ... -6%
O=C(NCCCn1ccnc1)/C(=C/c1ccc(-c2cccc(Cl)c2)o1)NC(=O)c1ccccc1 [Compound Z57239426] ... 2%
COc1cc(/C=N/Nc2ncnc3sc(-c4ccccc4)cc23)cc(OC)c1OC [Compound Z49894862] ... 34%

According to the records, this compound CC(=O)Nc1ccc(/C=C2/CCCc3c2nc2ccccc2c3C(=O)O)cc1 [Compound Z46035730] displays First screening IR (inhibition rate) of 5%

Recorded First screening IR (inhibition rate) (compound Cn1ccnc1C(O)(CCNC(=O)c1cccc(-c2cnc3[nH]c(=O)n(C)c3c2)c1)C(F)(F)F (centres unmarked) [Compound Z1723428243] ): 17%

Query COCCNc1ncnc2c1c(-c1ccccc1)cn2-c1ccc(OC)cc1 [Compound Z57455912] yields First screening IR (inhibition rate) of 16%

* * *

- Target under test: human recombinant Yes [a.a. 2–543 (end)] (Homo sapiens)
- Construct: human recombinant Yes [a.a; 2–543 (end)]; purchased BPS Bioscience 40488
- Measurement protocol: ADP-Glo kinase assay, inhibition rates of Yes phosphorylation activity (first and second screening)
- Format: biochemical
- Settings: first screening; mean of n = 4 wells; 10 μmol L−1 compound
# First screening IR (inhibition rate) annotations
Provide the reading as a plain figure in %.

CCCOc1c(Br)cc(C(=O)Nc2cccc(S(=O)(=O)N(CC)CC)c2)cc1OC ... 20
COc1cc(Br)c(S(=O)(=O)N(C)C(=O)C2CC2)cc1OC ... 0
NC(=O)c1ccc2[nH]cc(C3CCN(C(=O)c4cccs4)CC3)c2c1 ... -35
C/C(=C/c1ccc2ncccc2c1)c1cnccn1 ... 2
CNc1snc(C)c1C(=O)N1CCC(Oc2ccc(Cl)c(Cl)c2)C1 (centres unmarked) ... -7

For this compound ( Cc1cc(S(=O)(=O)N(C)CC(=O)N2CCC(O)CC2)cnc1Cl ), measured First screening IR (inhibition rate) is -1

get_value(item= O=C(Nc1cccc(C#Cc2cccs2)c1)C1CC2CCCC(C1)C2=O (centres unmarked) , readout=First screening IR (inhibition rate)) returns -2

# First screening IR (inhibition rate) (compound: CC1CCCN(Cc2ccc(CNCC3CNc4ccnn4C3)cc2)C1 (centres unmarked) ) is -4

Input Oc1cccc(/C=N/Nc2ccnc3cc(Cl)ccc23)c1 . Output First screening IR (inhibition rate): -13

* * *

- Target under test: human recombinant Yes [a.a. 2–543 (end)] (Homo sapiens)
- Construct: human recombinant Yes [a.a; 2–543 (end)]; purchased BPS Bioscience 40488
- Measurement protocol: ADP-Glo kinase assay, inhibition rates of Yes phosphorylation activity (first and second screening)
- Assay type: biochemical
- Settings: first screening; mean of n = 4 wells; 10 μmol L−1 compound
Property: First screening IR (inhibition rate) (%)
Number only, in %; omit the unit.

Please review the following examples before continuing.
Cc1sc2nc(-c3cccnc3)nc(NC3CC3)c2c1C ... -3
CCc1cc(=O)[nH]c(-c2cccc(NC(=O)C3(N4CCOCC4)CCCC3)c2)n1 ... 3
Cc1cc(C(=O)COc2ncnc3ccccc23)c(C)n1CC(F)(F)F ... 6

Measured First screening IR (inhibition rate) of COc1ccc(-c2c(C#N)c(=O)[nH]c3c2c(C)nn3-c2ccccc2)cc1OC : -1

Form: compound = CS(=O)(=O)c1ccc(S(=O)(=O)Cl)cc1 ; First screening IR (inhibition rate) = 73

Please fill in: First screening IR (inhibition rate) reported for Nc1ncnc(Nc2ccccc2)n1 = 16

Lab book: First screening IR (inhibition rate) of CN1C/C(=C/c2ccc(F)cc2)c2nc3ccccc3c(C(=O)O)c2C1 noted as -2

Query CCN(CC)S(=O)(=O)c1ccc(S(=O)(=O)N(C)C)cc1 yields First screening IR (inhibition rate) of 3

The measured First screening IR (inhibition rate) associated with Nc1nc(N2CC=C(c3ccccc3F)CC2)c2[nH]cnc2n1 reads 60

* * *

- Target under test: human recombinant Yes [a.a. 2–543 (end)] (Homo sapiens)
- Construct: human recombinant Yes [a.a; 2–543 (end)]; purchased BPS Bioscience 40488
- Measurement protocol: ADP-Glo kinase assay, inhibition rates of Yes phosphorylation activity (first and second screening)
- Assay type: biochemical
- Settings: first screening; mean of n = 4 wells; 10 μmol L−1 compound
Listed next: entries and their corresponding First screening IR (inhibition rate).
Numeric answer only, unit % assumed.

CCCCN(S(C)(=O)=O)S(=O)(=O)c1ccc(OC)cc1 ... 1
O=S(=O)(c1cccc(-c2n[nH]c(-c3ccccc3)c2-c2nc3ccccc3[nH]2)c1)N1CCCC1 ... -20

Please fill in: First screening IR (inhibition rate) reported for O=C(/C=C/c1cccs1)Nc1cc(-c2cccc([N+](=O)[O-])c2)sc1C(=O)O = 58

Just so you know, measured First screening IR (inhibition rate) for NC(=O)NCc1ccc(C(=O)N2CCN(c3ncc(C(F)(F)F)cc3Cl)CC2)cc1 came out at 4

* * *

In this section, each of the compounds is paired with its reported First screening IR (inhibition rate).
- Target under test: human recombinant Yes [a.a. 2–543 (end)] (Homo sapiens)
- Construct: human recombinant Yes [a.a; 2–543 (end)]; purchased BPS Bioscience 40488
- Measurement protocol: ADP-Glo kinase assay, inhibition rates of Yes phosphorylation activity (first and second screening)
- Assay type: biochemical
- Settings: first screening; mean of n = 4 wells; 10 μmol L−1 compound
Express your answer in %, writing the number without its unit.

Summary line: CC(Nc1ccc(Oc2cccc3cccnc23)cc1)C(N)=O (centres unmarked) [Compound Z1651676792] , human recombinant Yes [a.a. 2–543 (end)] (Homo sapiens), reported First screening IR (inhibition rate) = 6

// compound Cc1nn(CCc2nc(-c3ccco3)cs2)c2nc(-c3cccs3)cc(C(F)(F)F)c12 [Compound Z55404718] , assay human recombinant Yes [a.a. 2–543 (end)] (Homo sapiens), First screening IR (inhibition rate) value: 38

# value of First screening IR (inhibition rate), human recombinant Yes [a.a. 2–543 (end)] (Homo sapiens), item Cc1nn(C)c2nc(-c3ccccc3)cc(C(=O)Nc3ccc4nc(CN5CCOCC5)[nH]c4c3)c12 [Compound Z826860216] = 35

Readout First screening IR (inhibition rate) for COc1ccc(/C=N/Nc2ncnc3sc(C)c(C)c23)cc1O [Compound Z49890825] , test system human recombinant Yes [a.a. 2–543 (end)] (Homo sapiens), was 4

Reported First screening IR (inhibition rate) (human recombinant Yes [a.a. 2–543 (end)] (Homo sapiens)) for entry O=C(Cc1ccc(OC(F)F)cc1)N1CCC(c2nc(-c3ccccc3)n[nH]2)CC1 [Compound Z991836758] is -3

Entry Cc1ccc(-n2cnc3c2CCNC3)cc1 [Compound Z1250487636] , human recombinant Yes [a.a. 2–543 (end)] (Homo sapiens) data, First screening IR (inhibition rate) value: -7

* * *

- Target under test: human recombinant Yes [a.a. 2–543 (end)] (Homo sapiens, UniProt P07947)
- Construct: human recombinant Yes [a.a; 2–543 (end)]; purchased BPS Bioscience 40488
- Measurement protocol: ADP-Glo kinase assay, inhibition rates of Yes phosphorylation activity (first and second screening)
- Format: biochemical
- Settings: first screening; mean of n = 4 wells; 10 μmol L−1 compound
Property: First screening IR (inhibition rate) (%)
// note: answer is a bare numeric in %

Example entries and their recorded answers appear below.
O=C(C1=C(O)C(=O)N(CCCn2ccnc2)C1c1cccc([N+](=O)[O-])c1)c1ccco1 (stereo not shown) [Compound Z57237939] ... 62
Cc1cc(C(=O)Nc2ccc3c(c2)CCC3)ccc1-n1cnnn1 [Compound Z365246124] ... 9
CN(C1CCS(=O)(=O)C1)S(=O)(=O)c1ccc(Cl)c(Cl)c1 (stereo not shown) [Compound Z71311982] ... -2

First screening IR (inhibition rate) measured on CC(C)c1cc(C(=O)N(C)C2CCCCC2N(C)C(=O)c2cc(C(C)C)[nH]n2)n[nH]1 (stereo not shown) [Compound Z1511609753] = 5
